The measured values listed here are drawn from the supplement of paper PMC4466140.

target: ScBbc1; test: SPOT peptide array binding signal intensity (averaged, normalized) (arbitrary units (background-subtracted, floor 0; scale differs between SH3 domains)); higher = stronger binding of the SH3 domain to the peptide
parameter-measured: SPOT peptide array binding signal intensity
Write the number on its own, no unit after it.

Lookup: Report SPOT peptide array binding signal intensity for PKRRAPPPVPKKPSS please.
Found: 651

Lookup: Another binder to check: KMSRSPPRPPSLKII
Found: 69.5

Lookup: Another binder to check: SRQAIPPPVPNRPGG
Found: 802

Lookup: Another binder to check: SKIRPTPRKPSRMAT
Found: 73.5
